Source listed as patent US20230416227A1.

Kindly state IC50 for each of the entries shown.
Target: Human plasma kallikrein (Homo sapiens)
Construct: yields a heavy chain (371 amino acids) and a light chain (248 amino acids)
Test: Plasma Kallikrein Assay
Conditions: purified Human plasma kallikrein 0.5 nM, substrate Acetyl-K-P-R-AFC, pH 7.4
State the value, then name its unit.

INPUT: Can you share its IC50? I mean this compound: O=C(Nc1cnn(Cc2cnc(N3CCC4OCCC43)nc2)c1)c1cncc(-c2c(C(F)F)ccc(Cl)c2F)n1 (single isomer, unassigned) [Example 103]
OUTPUT: 31.3 nM

INPUT: For the compound CS(=O)(=O)c1ccc(Cl)c(F)c1-c1cncc(C(=O)Nc2cnn(Cc3cnc(N4CCC4)nc3)c2)n1 , what IC50 is on record?
OUTPUT: 17.2 nM

INPUT: # lookup: IC50 of O=C(Nc1cnn(Cc2cnc(N3CCCC3CC3(O)CC3)nc2)c1)c1cncc(-c2c(C(F)F)ccc(Cl)c2F)n1 (single isomer, unassigned)
OUTPUT: 49.2 nM

INPUT: What value of IC50 has been recorded for this entry: Cc1ncc(-c2c(C(F)F)ccc(Cl)c2F)nc1C(=O)Nc1cnn(C(CO)c2cnc(N3CCC3)nc2)c1 (single isomer, unassigned) [Example 47]
OUTPUT: 10.6 nM

INPUT: Can you share its IC50? I mean this compound: Cc1cc(N2CCC2)ncc1Cn1cc(NC(=O)c2cncc(-c3c(C(F)F)ccc(Cl)c3F)n2)cn1
OUTPUT: 10.2 nM

INPUT: Any idea what its IC50 is? The compound is NC(=O)c1cc(N2CCC2)ncc1Cn1cc(NC(=O)c2cncc(-c3c(C(F)F)ccc(Cl)c3F)n2)cn1
OUTPUT: 24.4 nM

====

Assign IC50 to each entry below.
Molecular target: Human plasma kallikrein (Homo sapiens, UniProt P03952)
Construct: yields a heavy chain (371 amino acids) and a light chain (248 amino acids)
Sequence (P03952 391-638 limits assumed): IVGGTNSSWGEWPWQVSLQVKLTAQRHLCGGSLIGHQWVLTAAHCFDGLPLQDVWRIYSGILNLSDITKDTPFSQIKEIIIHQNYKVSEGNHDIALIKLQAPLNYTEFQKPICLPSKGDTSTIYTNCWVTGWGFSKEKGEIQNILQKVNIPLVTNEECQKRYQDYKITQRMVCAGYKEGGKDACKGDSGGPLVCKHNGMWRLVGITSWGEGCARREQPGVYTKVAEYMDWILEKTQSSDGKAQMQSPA
Sequence (P03952 20-390 partner limits assumed): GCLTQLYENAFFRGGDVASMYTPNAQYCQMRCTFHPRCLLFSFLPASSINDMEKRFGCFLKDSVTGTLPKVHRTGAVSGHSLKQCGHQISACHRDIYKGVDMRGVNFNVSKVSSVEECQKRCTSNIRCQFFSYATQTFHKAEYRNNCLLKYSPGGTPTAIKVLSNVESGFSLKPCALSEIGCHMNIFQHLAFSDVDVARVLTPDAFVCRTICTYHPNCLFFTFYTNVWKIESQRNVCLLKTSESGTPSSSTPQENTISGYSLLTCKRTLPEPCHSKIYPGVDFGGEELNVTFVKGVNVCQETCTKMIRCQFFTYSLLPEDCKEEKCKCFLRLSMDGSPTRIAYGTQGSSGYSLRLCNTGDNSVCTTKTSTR
Assay: Plasma Kallikrein Assay
Settings: purified Human plasma kallikrein 0.5 nM, substrate Acetyl-K-P-R-AFC, pH 7.4
Report as: number unit

INPUT: State the recorded IC50 for this entry: CC(c1cnc(N2CC[C@H]2[C@@H](C)N2C[C@@H](O)[C@H](F)C2)nc1)n1cc(NC(=O)c2cncc(-c3c(C(F)F)ccc(Cl)c3F)n2)cn1 (stereo partly shown)
OUTPUT: 1.2 nM

INPUT: Quick one: IC50 for [2H]C(C)(c1cnc(N2CCC2)nc1)n1cc(NC(=O)c2cncc(-c3c(C(F)F)ccc(Cl)c3F)n2)cn1 (single isomer, unassigned) [Example 42] ?
OUTPUT: 4.7 nM

INPUT: Given the compound Cc1nc(N2CCC2)cnc1Cn1cc(NC(=O)c2cncc(-c3c(C(F)F)ccc(Cl)c3F)n2)cn1 , what is its reported IC50?
OUTPUT: 26.8 nM

INPUT: Returns the measured IC50 for the input compound. Input: COc1nc(N2CCC2)ncc1Cn1cc(NC(=O)c2cncc(-c3c(C(F)F)ccc(Cl)c3F)n2)cn1
OUTPUT: 26 nM

====

Biological target: Human plasma kallikrein (Homo sapiens)
Construct: yields a heavy chain (371 amino acids) and a light chain (248 amino acids)
Assay: Plasma Kallikrein Assay
Settings: purified Human plasma kallikrein 0.5 nM, substrate Acetyl-K-P-R-AFC, pH 7.4
Provide the recorded pIC50 for the entries that follow.
API: returns pIC50 as number; meaning -log10 of concentration in mol/L.

INPUT: Lab request: please report pIC50 under test system Human plasma kallikrein (Homo sapiens) for CC(c1cnc(N2Cc3cccnc3C2)nc1)n1cc(NC(=O)c2cncc(-c3c(C(F)F)ccc(Cl)c3F)n2)cn1 (stereo not shown)
OUTPUT: 8.03

INPUT: Short answer please: pIC50, Human plasma kallikrein (Homo sapiens), entry CC(c1cnc(N2CC[C@H]2CN2CC(C)(O)C2)nc1)n1cc(NC(=O)c2cncc(-c3c(C(F)F)ccc(Cl)c3F)n2)cn1 (stereo partly shown)
OUTPUT: 8.64

INPUT: pIC50 of Cc1nc(N2CCC2)ncc1Cn1cc(NC(=O)c2cncc(-c3c(C(F)F)ccc(Cl)c3F)n2)cn1 on Human plasma kallikrein (Homo sapiens)?
OUTPUT: 8.38

INPUT: Lab note: need pIC50 for CC(c1cnc(N2CC[C@H]2CN2CC[C@H](O)C2)nc1)n1cc(NC(=O)c2cncc(-c3c(C(F)F)ccc(Cl)c3F)n2)cn1 (stereo partly shown) on Human plasma kallikrein (Homo sapiens), anyone have it?
OUTPUT: 9.00

INPUT: API: value(readout=pIC50, system=Human plasma kallikrein (Homo sapiens)) for record O=C(Nc1cnn(Cc2ccc(N3CCC3)nc2)c1)c1cncc(-c2c(C(F)F)ccc(Cl)c2F)n1
OUTPUT: 7.88

INPUT: Provide the documented pIC50 with Human plasma kallikrein (Homo sapiens) as the system for CC(c1cnc(N2C[C@H]3C[C@H]3C2C(=O)N(C)C)nc1)n1cc(NC(=O)c2cncc(-c3c(C(F)F)ccc(Cl)c3F)n2)cn1 (single isomer, unassigned) [Example 203]
OUTPUT: 7.11

INPUT: Lab request: please report pIC50 under test system Human plasma kallikrein (Homo sapiens) for CC(c1cnc(N2Cc3cncnc3C2)nc1)n1cc(NC(=O)c2cncc(-c3c(C(F)F)ccc(Cl)c3F)n2)cn1 (stereo not shown)
OUTPUT: 8.25

INPUT: Query the reported pIC50 for Human plasma kallikrein (Homo sapiens); item: O=C(Nc1cnn(Cc2ccc(N3CC[C@@H]3CO)nc2)c1)c1cncc(-c2c(C(F)F)ccc(Cl)c2F)n1
OUTPUT: 7.58

INPUT: # returns recorded pIC50 (system: Human plasma kallikrein (Homo sapiens)) for O=C(Nc1cnn(Cc2cnc(N3CCCC3CO)nc2)c1)c1cncc(-c2c(C(F)F)ccc(Cl)c2F)n1 (stereo not shown)
OUTPUT: 7.19

INPUT: Param readout = pIC50; param system = Human plasma kallikrein (Homo sapiens); param query = CC(C)(O)CNC[C@@H]1[C@@H]2C[C@@H]2CN1c1ncc(Cn2cc(NC(=O)c3cncc(-c4c(C(F)F)ccc(Cl)c4F)n3)cn2)cn1 ; response: value
OUTPUT: 9.52

INPUT: Report pIC50 for CN(C)CCN(C)c1ncc(Cn2cc(NC(=O)c3cncc(-c4c(C(F)F)ccc(Cl)c4F)n3)cn2)cn1 tested on Human plasma kallikrein (Homo sapiens).
OUTPUT: 7.55

INPUT: Fill in the recorded pIC50 for this molecule, with Human plasma kallikrein (Homo sapiens) as test system: CC(c1cnc(N2CC[C@H]2CN[C@H](C)C(C)(C)O)nc1)n1cc(NC(=O)c2cncc(-c3c(C(F)F)ccc(Cl)c3F)n2)cn1 (stereo partly shown)
OUTPUT: 8.21

INPUT: Return pIC50 measured with Human plasma kallikrein (Homo sapiens) given this molecule: CC(c1cnc(N2CC[C@H]2CN2CCC(C)(O)C2)nc1)n1cc(NC(=O)c2cncc(-c3c(C(F)F)ccc(Cl)c3F)n2)cn1 (stereo partly shown)
OUTPUT: 9.15

====

Target: Human plasma kallikrein (Homo sapiens, UniProt P03952)
Construct: yields a heavy chain (371 amino acids) and a light chain (248 amino acids)
Assay: Plasma Kallikrein Assay
Conditions: purified Human plasma kallikrein 0.5 nM, substrate Acetyl-K-P-R-AFC, pH 7.4
VALUE_TYPE: IC50 (nM)
Your answer should be a plain number; it is taken to be in nM.

INPUT: Give Human plasma kallikrein (Homo sapiens, UniProt P03952) IC50 for C[C@@H](F)CN(C)CC1CCCN1c1ncc(Cn2cc(NC(=O)c3cncc(-c4c(C(F)F)ccc(Cl)c4F)n3)cn2)cn1 (stereo partly drawn) [Example 151]
OUTPUT: 1

INPUT: API: value(readout=IC50, system=Human plasma kallikrein (Homo sapiens, UniProt P03952)) for record C[C@@H](c1cnc(N2C[C@@H]3C[C@@H]3[C@@H]2C#N)nc1)n1cc(NC(=O)c2cncc(-c3c(C(F)F)ccc(Cl)c3F)n2)cn1 [Example 199]
OUTPUT: 1.5

INPUT: Give IC50 (Human plasma kallikrein (Homo sapiens, UniProt P03952)) of the following compound: CO[C@H]1CN(C[C@@H]2CCN2c2ncc(C(C)n3cc(NC(=O)c4cncc(-c5c(C(F)F)ccc(Cl)c5F)n4)cn3)cn2)C[C@@H]1O (stereo partly drawn) [Example 165]
OUTPUT: 1.4

INPUT: # query: IC50 | item C[C@@H](O)[C@H]1[C@H]2C[C@H]2CN1c1ncc(Cn2cc(NC(=O)c3cncc(-c4c(C(F)F)ccc(Cl)c4F)n3)cn2)cn1 [Example 87] | system: Human plasma kallikrein (Homo sapiens, UniProt P03952)
OUTPUT: 13.6

INPUT: Quick check: IC50 on Human plasma kallikrein (Homo sapiens, UniProt P03952), item CN(CC1CCCN1c1ncc(Cn2cc(NC(=O)c3cncc(-c4c(C(F)F)ccc(Cl)c4F)n3)cn2)cn1)CC1(O)CC1 (single isomer, unassigned) [Example 141] ?
OUTPUT: 0.3

INPUT: Notebook entry, Human plasma kallikrein (Homo sapiens, UniProt P03952) assay: IC50 of NC(=O)[C@H]1CCCN1c1ncc(Cn2cc(NC(=O)c3cncc(-c4c(C(F)F)ccc(Cl)c4F)n3)cn2)cn1 [Example 97] = ?
OUTPUT: 26.9
